biological target: Epidermal growth factor receptor (Homo sapiens, UniProt P00533); assay: DRUGMATRIX: Protein Tyrosine Kinase, EGF Receptor enzyme inhibition (substrate: Poly(Glu:Tyr)); assay type: cell-based, Insect cells; details: insect cells; Not Active = under 50% inhibition at 10 µM
Sequence (P00533 whole entry): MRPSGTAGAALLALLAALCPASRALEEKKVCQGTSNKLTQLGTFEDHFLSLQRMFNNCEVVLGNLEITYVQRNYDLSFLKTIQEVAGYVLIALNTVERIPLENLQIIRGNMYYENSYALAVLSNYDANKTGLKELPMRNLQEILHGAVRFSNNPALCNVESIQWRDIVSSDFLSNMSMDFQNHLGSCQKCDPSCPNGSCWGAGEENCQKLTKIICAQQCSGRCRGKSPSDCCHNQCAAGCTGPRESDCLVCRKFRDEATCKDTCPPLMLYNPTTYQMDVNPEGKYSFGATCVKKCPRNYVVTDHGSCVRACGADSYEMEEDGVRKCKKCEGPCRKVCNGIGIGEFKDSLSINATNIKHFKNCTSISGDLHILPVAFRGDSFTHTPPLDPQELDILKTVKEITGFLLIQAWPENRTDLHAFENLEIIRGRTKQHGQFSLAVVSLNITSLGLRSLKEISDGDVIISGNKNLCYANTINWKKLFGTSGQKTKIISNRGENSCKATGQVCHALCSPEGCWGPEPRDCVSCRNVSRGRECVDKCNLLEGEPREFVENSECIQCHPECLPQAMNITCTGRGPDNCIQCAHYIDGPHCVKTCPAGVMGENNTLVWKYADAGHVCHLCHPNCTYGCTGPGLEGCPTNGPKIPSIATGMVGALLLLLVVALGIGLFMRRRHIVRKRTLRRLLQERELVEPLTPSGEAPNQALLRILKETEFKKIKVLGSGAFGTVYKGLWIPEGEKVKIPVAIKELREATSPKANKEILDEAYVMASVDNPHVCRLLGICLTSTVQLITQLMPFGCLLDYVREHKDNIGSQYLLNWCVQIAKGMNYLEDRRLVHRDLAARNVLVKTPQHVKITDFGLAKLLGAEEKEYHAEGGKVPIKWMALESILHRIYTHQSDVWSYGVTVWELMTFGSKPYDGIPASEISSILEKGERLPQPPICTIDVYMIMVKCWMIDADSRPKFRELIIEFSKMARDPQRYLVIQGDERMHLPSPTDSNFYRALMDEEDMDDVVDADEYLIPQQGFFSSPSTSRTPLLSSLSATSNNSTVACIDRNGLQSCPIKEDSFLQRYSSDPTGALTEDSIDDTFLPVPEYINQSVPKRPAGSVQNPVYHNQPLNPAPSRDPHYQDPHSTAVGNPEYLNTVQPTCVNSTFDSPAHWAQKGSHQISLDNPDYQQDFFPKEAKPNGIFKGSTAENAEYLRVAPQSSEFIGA
READOUT_NAME: IC50

[
  {
    "LINE_NOTATION": "CC[C@H](C)C(=O)O[C@H]1C[C@H](O)C=C2C=C[C@H](C)[C@H](CC[C@@H](O)C[C@@H](O)CC(=O)O)[C@H]21",
    "READOUT_NAME": "IC50",
    "TEST_VALUE": "Not Active"
  },
  {
    "LINE_NOTATION": "CC1=C(CC(=O)O)c2cc(F)ccc2/C1=C\\c1ccc(S(C)(=O)=O)cc1",
    "READOUT_NAME": "IC50",
    "TEST_VALUE": "Not Active"
  },
  {
    "LINE_NOTATION": "CN[C@@H]1[C@H](O)[C@H](NC)[C@H]2O[C@@]3(O)C(=O)C[C@@H](C)O[C@H]3O[C@@H]2[C@H]1O",
    "READOUT_NAME": "IC50",
    "TEST_VALUE": "Not Active"
  }
]

----------
molecular target: Vasopressin V1a receptor (Homo sapiens, UniProt P37288); type: cell membranes, Membrane; details: hek293; further: in other assays of this panel Not Active means under 50% inhibition at 10 µM
Sequence (P37288 whole entry): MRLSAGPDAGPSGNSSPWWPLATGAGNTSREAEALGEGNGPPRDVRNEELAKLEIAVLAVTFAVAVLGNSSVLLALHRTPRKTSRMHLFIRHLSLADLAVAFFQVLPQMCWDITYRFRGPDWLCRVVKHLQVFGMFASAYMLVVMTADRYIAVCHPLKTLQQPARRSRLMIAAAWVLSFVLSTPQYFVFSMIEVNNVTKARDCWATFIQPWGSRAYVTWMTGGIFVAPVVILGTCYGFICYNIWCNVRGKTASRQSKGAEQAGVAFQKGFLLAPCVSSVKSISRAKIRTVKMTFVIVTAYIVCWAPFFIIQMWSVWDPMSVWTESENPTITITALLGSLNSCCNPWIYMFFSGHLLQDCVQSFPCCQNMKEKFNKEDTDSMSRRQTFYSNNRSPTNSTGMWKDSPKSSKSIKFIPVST

[
  {
    "COMPOUND": "C#C[C@]1(O)CC[C@H]2[C@@H]3CCC4=Cc5oncc5C[C@]4(C)[C@H]3CC[C@@]21C",
    "IC50": "Not Active"
  },
  {
    "COMPOUND": "COc1ccc(CN2CCNCC2)c(OC)c1OC",
    "IC50": "Not Active"
  },
  {
    "COMPOUND": "CC(=O)O[C@H]1C[C@@H]2CC[C@@H]3[C@H](CC[C@@]4(C)[C@H]3C[C@H]([N+]3(C)CCCCC3)[C@@H]4OC(C)=O)[C@@]2(C)C[C@@H]1N1CCCCC1.[Br-] [VECURONIUM BROMIDE]",
    "IC50": "Not Active"
  }
]

----------
target: UniProt:P07943; assay: biochemical; type: tissue-based, Lens of camera-type eye
READOUT_NAME: IC50

Would you please look over these solved cases?
[
  {
    "COMPOUND": "CCn1cc(C(=O)O)c(=O)c2cc(F)c(N3CCNCC3)nc21",
    "IC50": "Not Active"
  },
  {
    "COMPOUND": "CC[C@]1(O)CC[C@H]2[C@@H]3CCC4=CCCC[C@@H]4[C@H]3CC[C@@]21C",
    "IC50": "Not Active"
  },
  {
    "COMPOUND": "CN(CCOc1ccc(CC2SC(=O)NC2=O)cc1)c1ccccn1 (stereo unspecified)",
    "IC50": "Not Active"
  },
  {
    "COMPOUND": "CS(=O)(=O)OCCCCOS(C)(=O)=O",
    "IC50": "Not Active"
  },
  {
    "COMPOUND": "CCOC(=O)[C@H](CCc1ccccc1)N[C@@H](C)C(=O)N1CCC[C@H]1C(=O)O",
    "IC50": "Not Active"
  }
]

API: the following record is the query input.
Query :: Look at this compound and give its reported IC50. CCN(CC)CC#CCOC(=O)C(O)(c1ccccc1)C1CCCCC1 (stereo unspecified)
Result :: Not Active

----------
Target: Amine oxidase [flavin-containing] A (Homo sapiens, UniProt P21397)
Sequence (P21397 whole entry): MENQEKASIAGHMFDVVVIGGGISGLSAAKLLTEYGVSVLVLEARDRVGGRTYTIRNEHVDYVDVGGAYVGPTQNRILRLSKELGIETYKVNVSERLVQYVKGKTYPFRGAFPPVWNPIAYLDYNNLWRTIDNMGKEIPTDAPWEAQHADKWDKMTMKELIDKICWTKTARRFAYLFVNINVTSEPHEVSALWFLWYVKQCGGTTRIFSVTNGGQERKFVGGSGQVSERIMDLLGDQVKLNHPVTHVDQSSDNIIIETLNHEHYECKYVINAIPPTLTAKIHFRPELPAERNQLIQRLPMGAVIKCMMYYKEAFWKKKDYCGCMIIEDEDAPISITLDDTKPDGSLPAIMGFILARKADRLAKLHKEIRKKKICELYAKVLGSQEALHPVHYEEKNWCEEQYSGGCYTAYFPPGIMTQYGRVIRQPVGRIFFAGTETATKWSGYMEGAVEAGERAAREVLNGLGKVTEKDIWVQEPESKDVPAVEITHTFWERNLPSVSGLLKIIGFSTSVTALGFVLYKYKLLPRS
Assay: DRUGMATRIX: Monoamine Oxidase MAO-A enzyme inhibition (substrate: Kynuramine)
Parameters: species or system BTI-TN-5B1-4
Conditions: Not Active = under 50% inhibition at 10 µM; read-out: IC50
READOUT_NAME: IC50 (nM)
Please respond with the number in nM and leave the unit unwritten.

Query :: Look at this molecule and give its reported IC50. "N=C(N)N/N=C/c1c(Cl)cccc1Cl"
Result :: 1790

----------
assay: DRUGMATRIX: Purinergic P2X radioligand binding (ligand: [3H] alpha, beta-Methylene-ATP); format: cell membranes, Oryctolagus cuniculus, New Zealand albino, Urinary bladder, Membrane; details: Not Active = under 50% inhibition at 10 µM
READOUT_NAME: IC50

[
  {
    "COMPOUND": "NC[C@@H]1O[C@H](O[C@H]2[C@@H](O)[C@H](O[C@@H]3[C@@H](O)[C@H](N)C[C@H](N)[C@H]3O[C@H]3O[C@H](CN)[C@@H](O)[C@H](O)[C@H]3N)O[C@@H]2CO)[C@H](N)[C@@H](O)[C@@H]1O [FRAMYCETIN]",
    "READOUT_NAME": "IC50",
    "TEST_VALUE": "Not Active"
  },
  {
    "COMPOUND": "CC(C)(C)c1ccc(S(=O)(=O)/C=C/C#N)cc1 [BAY-11-7085]",
    "READOUT_NAME": "IC50",
    "TEST_VALUE": "Not Active"
  },
  {
    "COMPOUND": "COc1cc(C(=O)NS(=O)(=O)c2ccccc2C)ccc1Cc1cn(C)c2ccc(NC(=O)OC3CCCC3)cc12 [ZAFIRLUKAST]",
    "READOUT_NAME": "IC50",
    "TEST_VALUE": "Not Active"
  }
]

----------
assay: DRUGMATRIX: Calcium Channel Type L, Benzothiazepine radioligand binding (ligand: [3H] Diltiazem); type: cell membranes, Rattus norvegicus, Wistar, Brain, Membrane; conditions: Not Active = under 50% inhibition at 10 µM
READOUT_NAME: IC50

Would you please look over these solved cases?
[
  {
    "COMPOUND": "CCn1cc(C(=O)O)c(=O)c2cc(F)c(N3CCNCC3)nc21",
    "IC50": "Not Active"
  },
  {
    "COMPOUND": "CNS(=O)(=O)Cc1ccc2[nH]cc(CCN(C)C)c2c1",
    "IC50": "Not Active"
  },
  {
    "COMPOUND": "COc1cc(CNC(=O)CCCC/C=C/C(C)C)ccc1O",
    "IC50": "Not Active"
  },
  {
    "COMPOUND": "Cc1cn[nH]c1 [FOMEPIZOLE]",
    "IC50": "Not Active"
  },
  {
    "COMPOUND": "CO[C@H]1C[C@@H]2CC[C@@H](C)[C@@](O)(O2)C(=O)C(=O)N2CCCC[C@H]2C(=O)O[C@H]([C@H](C)C[C@@H]2CC[C@@H](O)[C@H](OC)C2)CC(=O)[C@H](C)/C=C(\\C)[C@@H](O)[C@@H](OC)C(=O)[C@H](C)C[C@H](C)/C=C/C=C/C=C/1C",
    "IC50": "Not Active"
  },
  {
    "COMPOUND": "Nc1nc(Cl)nc2c1ncn2[C@H]1C[C@H](O)[C@@H](CO)O1",
    "IC50": "Not Active"
  }
]

Query :: Look at this compound and give its reported IC50. "CC(C)(Sc1cc(C(C)(C)C)c(O)c(C(C)(C)C)c1)Sc1cc(C(C)(C)C)c(O)c(C(C)(C)C)c1"
Result :: Not Active

Query :: Look at this compound and give its reported IC50. "CCOC(=O)[C@H](CCc1ccccc1)N[C@@H](C)C(=O)N1CCC[C@H]1C(=O)O"
Result :: Not Active

----------
target: Cytochrome P450 1A2 (Homo sapiens); settings: bti-tn-5b1-4; further: in other assays of this panel Not Active means under 50% inhibition at 10 µM
Sequence (P05177 whole entry): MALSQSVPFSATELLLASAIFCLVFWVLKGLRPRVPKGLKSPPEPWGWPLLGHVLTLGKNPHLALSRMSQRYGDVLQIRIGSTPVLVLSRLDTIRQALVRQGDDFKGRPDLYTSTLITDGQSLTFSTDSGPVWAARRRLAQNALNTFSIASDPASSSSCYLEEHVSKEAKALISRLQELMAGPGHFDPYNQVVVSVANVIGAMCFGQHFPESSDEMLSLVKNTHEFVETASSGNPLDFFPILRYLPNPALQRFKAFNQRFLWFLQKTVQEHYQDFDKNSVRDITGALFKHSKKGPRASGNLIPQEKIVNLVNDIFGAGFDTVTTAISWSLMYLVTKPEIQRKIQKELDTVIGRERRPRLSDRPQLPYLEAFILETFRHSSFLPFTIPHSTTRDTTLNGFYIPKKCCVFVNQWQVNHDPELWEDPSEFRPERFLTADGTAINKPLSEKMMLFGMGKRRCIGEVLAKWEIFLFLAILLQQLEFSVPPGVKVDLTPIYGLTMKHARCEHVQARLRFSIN

[
  {
    "COMPOUND": "C[C@@H]1C[C@H]2[C@@H]3CCC4=CC(=O)C=C[C@]4(C)C3=CC[C@]2(C)[C@H]1C(=O)CN1CCN(c2cc(N3CCCC3)nc(N3CCCC3)n2)CC1",
    "Ki": "Not Active"
  },
  {
    "COMPOUND": "CC[C@H]1OC(=O)[C@H](C)[C@@H](O[C@H]2C[C@@](C)(OC)[C@@H](O)[C@H](C)O2)[C@H](C)[C@@H](O[C@@H]2O[C@H](C)C[C@H](N(C)C)[C@H]2O)[C@](C)(OC)C[C@@H](C)C(=O)[C@H](C)[C@@H](O)[C@]1(C)O",
    "Ki": "Not Active"
  },
  {
    "COMPOUND": "NC(=O)N1c2ccccc2C=Cc2ccccc21 [CARBAMAZEPINE]",
    "Ki": "Not Active"
  }
]
